Where do the numbers come from? From patent US10457709B2.

Property: Minimum inhibitory concentration; scope: individual compounds
# System: Enterobacter cloacae clinical strains
# Type: cell-based
# Design: unit: μg/ml
# test_parameters: Enterobacter cloacae clinical strain 2; microdilution, Muller Hinton broth-cation adjusted, 0.02% BSA, 0.2% acetic acid
Square brackets hold non-standard residues; d marks the D form. Peptide text beside a SMILES is read from it.
Output spec: single numeric token, no unit.

Use these answered entries as a reference point.
compound	reported
CC[C@@H](C)[C@@H](NC(=O)[C@@H](CC(C)C)NC(=O)[C@@H](CCCNC(=N)N)NC(=O)[C@H](N)CCCNC(=N)N)C(=O)N[C@H](Cc1c[nH]c2ccccc12)C(=O)N[C@H](CCCNC(=N)N)C(=O)N[C@H](CCCNC(=N)N)C(=O)N[C@H](Cc1ccccc1)C(=O)N[C@H](CCCCN)C(=O)N[C@H](Cc1c[nH]c2ccccc12)C(=O)N[C@H](CC(C)C)C(=O)N[C@H](CCCNC(=N)N)C(=O)O [Chain204D] (H-[dR][dR][dL][dI][dW][dR][dR][dF][dK][dW][dL][dR]-OH)	8
CC(C)C[C@@H](NC(=O)[C@H](N)CCCNC(=N)N)C(=O)N[C@H](CCCCN)C(=O)N[C@H](Cc1c[nH]c2ccccc12)C(=O)N[C@H](Cc1ccccc1)C(=O)N[C@H](Cc1c[nH]c2ccccc12)C(=O)N[C@H](CC(C)C)C(=O)N[C@H](Cc1ccccc1)C(=O)N[C@H](CCCNC(=N)N)C(=O)N[C@H](CCCCN)C(=O)N[C@H](CCCNC(=N)N)C(=O)O [Chain307D] (H-[dR][dL][dK][dW][dF][dW][dL][dF][dR][dK][dR]-OH)	8

// next item, Minimum inhibitory concentration requested
Request: Param item = CC[C@@H](C)[C@@H](NC(=O)[C@@H](Cc1c[nH]c2ccccc12)NC(=O)[C@H](N)CCCCN)C(=O)N[C@@H](C(=O)N[C@H](Cc1c[nH]c2ccccc12)C(=O)N[C@H](CCCNC(=N)N)C(=O)N[C@H](Cc1c[nH]c2ccccc12)C(=O)N[C@H](CCCNC(=N)N)C(=O)N[C@H](Cc1ccccc1)C(=O)N[C@H](CCCCN)C(=O)N[C@H](CCCNC(=N)N)C(=O)O)C(C)C [Chain201D] (H-[dK][dW][dI][dV][dW][dR][dW][dR][dF][dK][dR]-OH) ; retrieve measured Minimum inhibitory concentration.
Result: 2

###

Property: Minimum inhibitory concentration; scope: individual compounds
# Test system: Candida albicans clinical strains
# assay_protocol: MIC, clinical yeast strains
# Assay type: cell-based
# Design: unit: μg/ml
# test_parameters: Candida albicans clinical yeast strain 5
Square brackets hold non-standard residues; d marks the D form. Peptide text beside a SMILES is read from it.
Output spec: single numeric token, no unit.

compound	reported
CC(C)C[C@@H](NC(=O)[C@@H](CCCCN)NC(=O)[C@@H](CCCCN)NC(=O)[C@@H](Cc1ccccc1)NC(=O)[C@@H](CC(C)C)NC(=O)[C@@H](Cc1c[nH]c2ccccc12)NC(=O)[C@@H](CCCNC(=N)N)NC(=O)[C@@H](Cc1c[nH]c2ccccc12)NC(=O)[C@@H](CCCCN)NC(=O)[C@@H](CCCNC(=N)N)NC(=O)[C@H](N)CCCCN)C(=O)O [Chain310D] (H-[dK][dR][dK][dW][dR][dW][dL][dF][dK][dK][dL]-OH)	16
CC(C)C[C@@H](NC(=O)[C@H](N)CCCNC(=N)N)C(=O)N[C@H](CCCCN)C(=O)N[C@H](Cc1c[nH]c2ccccc12)C(=O)N[C@H](Cc1ccccc1)C(=O)N[C@H](CC(C)C)C(=O)N[C@H](CC(C)C)C(=O)N[C@H](Cc1ccccc1)C(=O)N[C@H](CCCNC(=N)N)C(=O)N[C@H](CCCCN)C(=O)N[C@H](CCCNC(=N)N)C(=O)O [Chain308D] (H-[dR][dL][dK][dW][dF][dL][dL][dF][dR][dK][dR]-OH)	16

// next item, Minimum inhibitory concentration requested
Request: Param item = CC(C)C[C@@H](NC(=O)[C@H](N)CCCCN)C(=O)N[C@H](CCCCN)C(=O)N[C@H](Cc1c[nH]c2ccccc12)C(=O)N[C@H](Cc1ccccc1)C(=O)N[C@H](Cc1c[nH]c2ccccc12)C(=O)N[C@H](CC(C)C)C(=O)N[C@H](Cc1ccccc1)C(=O)N[C@H](CCCCN)C(=O)N[C@H](CCCCN)C(=O)N[C@H](CCCNC(=N)N)C(=O)O [Chain311D] (H-[dK][dL][dK][dW][dF][dW][dL][dF][dK][dK][dR]-OH) ; retrieve measured Minimum inhibitory concentration.
Result: 16

###

Property: Minimum inhibitory concentration; scope: individual compounds
# Tested on: Klebsiella pneumoniae clinical strains
# Format: cell-based
# test_parameters: Klebsiella pneumoniae clinical strain 5; microdilution, Muller Hinton broth-cation adjusted, 0.02% BSA, 0.2% acetic acid
Square brackets hold non-standard residues; d marks the D form. Peptide text beside a SMILES is read from it.
Output spec: single numeric token, no unit.

Use these answered entries as a reference point.
compound	Minimum inhibitory concentration
CC[C@@H](C)[C@@H](N)C(=O)N[C@H](Cc1c[nH]c2ccccc12)C(=O)N[C@H](CCCCN)C(=O)N[C@H](CCCNC(=N)N)C(=O)N[C@H](Cc1ccccc1)C(=O)N[C@H](CCCNC(=N)N)C(=O)N[C@H](CC(C)C)C(=O)N[C@H](Cc1ccccc1)C(=O)N[C@H](CCCCN)C(=O)N[C@H](CCCCN)C(=O)N[C@H](Cc1c[nH]c2ccccc12)C(=O)O [Chain304D] (H-[dI][dW][dK][dR][dF][dR][dL][dF][dK][dK][dW]-OH)	64
CC[C@@H](C)[C@@H](NC(=O)[C@@H](Cc1c[nH]c2ccccc12)NC(=O)[C@H](N)CCCCN)C(=O)N[C@@H](C(=O)N[C@H](Cc1c[nH]c2ccccc12)C(=O)N[C@H](CCCNC(=N)N)C(=O)N[C@H](Cc1c[nH]c2ccccc12)C(=O)N[C@H](CCCNC(=N)N)C(=O)N[C@H](Cc1ccccc1)C(=O)N[C@H](CCCCN)C(=O)N[C@H](CCCNC(=N)N)C(=O)O)C(C)C [Chain201D] (H-[dK][dW][dI][dV][dW][dR][dW][dR][dF][dK][dR]-OH)	2
CC(C)C[C@@H](NC(=O)[C@H](N)CCCCN)C(=O)N[C@H](CCCCN)C(=O)N[C@H](Cc1c[nH]c2ccccc12)C(=O)N[C@H](Cc1ccccc1)C(=O)N[C@H](Cc1c[nH]c2ccccc12)C(=O)N[C@H](CC(C)C)C(=O)N[C@H](Cc1ccccc1)C(=O)N[C@H](CCCCN)C(=O)N[C@H](CCCCN)C(=O)N[C@H](CCCNC(=N)N)C(=O)O [Chain311D] (H-[dK][dL][dK][dW][dF][dW][dL][dF][dK][dK][dR]-OH)	4
CC(C)C[C@@H](NC(=O)[C@@H](CCCCN)NC(=O)[C@@H](CCCCN)NC(=O)[C@@H](Cc1ccccc1)NC(=O)[C@@H](CC(C)C)NC(=O)[C@@H](Cc1c[nH]c2ccccc12)NC(=O)[C@@H](CCCNC(=N)N)NC(=O)[C@@H](Cc1c[nH]c2ccccc12)NC(=O)[C@@H](CCCCN)NC(=O)[C@@H](CCCNC(=N)N)NC(=O)[C@H](N)CCCCN)C(=O)O [Chain310D] (H-[dK][dR][dK][dW][dR][dW][dL][dF][dK][dK][dL]-OH)	32
CC(C)C[C@@H](NC(=O)[C@H](N)CCCNC(=N)N)C(=O)N[C@H](CCCCN)C(=O)N[C@H](CCCNC(=N)N)C(=O)N[C@H](Cc1c[nH]c2ccccc12)C(=O)N[C@H](CCCNC(=N)N)C(=O)N[C@H](CC(C)C)C(=O)N[C@H](Cc1ccccc1)C(=O)N[C@H](CCCNC(=N)N)C(=O)N[C@H](CCCCN)C(=O)N[C@H](CCCNC(=N)N)C(=O)O [Chain306D] (H-[dR][dL][dK][dR][dW][dR][dL][dF][dR][dK][dR]-OH)	64

// next item, Minimum inhibitory concentration requested
Request: Param item = CC(C)C[C@@H](NC(=O)[C@H](N)CCCNC(=N)N)C(=O)N[C@H](CCCCN)C(=O)N[C@H](Cc1c[nH]c2ccccc12)C(=O)N[C@H](Cc1ccccc1)C(=O)N[C@H](CC(C)C)C(=O)N[C@H](CC(C)C)C(=O)N[C@H](Cc1ccccc1)C(=O)N[C@H](CCCNC(=N)N)C(=O)N[C@H](CCCCN)C(=O)N[C@H](CCCNC(=N)N)C(=O)O [Chain308D] (H-[dR][dL][dK][dW][dF][dL][dL][dF][dR][dK][dR]-OH) ; retrieve measured Minimum inhibitory concentration.
Result: 4
